These measurements were taken from PubChem BioAssay (NCI).

Test system: NCI-H522 lung
Assay: NCI-60 one-dose screen, 48 h (100 = growth as untreated, 0 = no growth, -100 = all killed)
Conditions: 10 µM unless noted
This is part of a sample that, as a whole, favours compounds with a hit. Of some 83,000 tested, about 20% had one in any assay.
So basically: growth at 50% or higher? That is true. Lower than 50%? That is false.

Reference set (3 entries):
>  <compound>
COc1ccc(/C=N/C2=C(C#N)C(c3ccc(OC)cc3)c3ccc4ccccc4c3O2)cc1 (stereo not given)

>  <class-label>
false

$$$$
>  <compound>
CN(C)CCCn1c(=O)c2ccccc2c2ccccc21

>  <class-label>
true

$$$$
>  <compound>
Oc1ccc(CN2CCC(N3CCOCC3)CC2)c2cccnc12

>  <class-label>
false

$$$$

## Input Check if growth >= 50% (inclusive). Item: `O=c1c2cc(F)ccc2sc2c(NCCN3CCCCC3)nc3ccccc3c12`
## Output false

## Input Check if growth >= 50% (inclusive). Item: `N=C(N)c1ccc(-c2ccc(-c3cncc4ccccc34)s2)s1`
## Output false

## Input Check if growth >= 50% (inclusive). Item: `Cn1c(-c2c(N)n(Cc3cccnc3)c3nc(C#N)c(C#N)nc23)nc2ccccc21`
## Output true

## Input Check if growth >= 50% (inclusive). Item: `COC(=O)[C@]12CC[C@@H](C)[C@H](C)[C@@H]1C1=CC[C@@H]3[C@@]4(C)C(C=O)=C[C@@](C)(COC(=O)c5ccco5)C4=CC[C@@]3(C)[C@]1(C)CC2`
## Output false

## Input Check if growth >= 50% (inclusive). Item: `O=c1ccn2nc3ccccc3c2[nH]1`
## Output true

## Input Check if growth >= 50% (inclusive). Item: `COc1ccc(NC(=O)CSc2nnc(-c3cc(-c4ccccc4)nc4ccccc34)n2-c2ccccc2)cc1`
## Output true

====

System: HCT-15 colon
Experiment: NCI-60 one-dose screen, 48 h (100 = growth as untreated, 0 = no growth, -100 = all killed)
Conditions: 10 µM unless noted
The panel holds about 83,000 compounds, 20% with a hit somewhere; the sample as a whole holds those more often.
So basically: growth at 70% or higher? That is YES. Lower than 70%? That is NO.

Reference set (4 entries):
>  <compound>
O=C(COc1ccc(/C=C2\Oc3ccccc3C2=O)cc1)c1ccc(Cl)cc1

>  <class-label>
YES

$$$$
>  <compound>
N=c1sc(Cc2ccc(Cl)cc2)cn1CC(=O)c1ccc(F)cc1

>  <class-label>
NO

$$$$
>  <compound>
COc1ccc2c(c1)O/C(=C\c1cccc(OCC(=O)Nc3nc4ccccc4s3)c1)C2=O

>  <class-label>
YES

$$$$
>  <compound>
CCOC(=O)C/C(C)=N\NC(=O)c1ccncc1

>  <class-label>
YES

$$$$

## Input Check if growth >= 70% (inclusive). Item: `COc1cc(/C=C/C(=O)c2cccc(-n3cc(-c4ccccc4)[nH]c3=O)c2)ccc1O`
## Output NO

## Input Check if growth >= 70% (inclusive). Item: `COc1cc(C(=O)/C=C/c2c(-c3ccc(F)cc3)nc3sc(C)cn23)cc(OC)c1OC`
## Output NO

## Input Check if growth >= 70% (inclusive). Item: CC1O[C@@H](OC2[C@H](OC(=O)/C=C/c3ccc(O)c(O)c3)C(COC3O[C@H](C)C(O)C(O)[C@@H]3O)O[C@@H](OCCc3ccc(O)c(O)c3)[C@H]2O)[C@@H](O)C(O)[C@H]1O (some centres undefined)
## Output YES

## Input Check if growth >= 70% (inclusive). Item: `COC(=O)[C@]12CC[C@@H](C)[C@H](C)[C@@H]1C1=CC[C@@H]3[C@@]4(C)C(C=O)=C[C@@](C)(COC(C)=O)[C@@H]4[C@H](O)C[C@@]3(C)[C@]1(C)CC2`
## Output NO
